B1: library; numbered along this chain (parent)
chain: MATDAALRRLLRLHRTEIAVAVDSAFPLLHALADHDVVPEDKFQETLHLKEKEGCPQAFHALLSWLLTQDSTAILDFWRVLFKDYNLERYGRLQPILDSFPKDVDLSQPRKGRKPPAVPKALVPPPRLPTKRKASEEARAAAPAALTPRGTASPGSQLKAKPPKKPESSAEQQRLPLGNGIQTMSASVQRAVAMSSGDVPGARGAVEGILIQQVFESGGSKKCIQVGGEFYTPSKFEDSGSGKNKARSSSGPKPLVRAKGAQGAAPGGGEARLGQQGSVPAPLALPSDPQLHQKNEDECAVCRDGGELICCDGCPRAFHLACLSPPLREIPSGTWRCSSCLQATVQEVQPRAEEPRPQEPPVETPLPPGLRSAGEEVRGPPGEPLAGMDTTLVYKHLPAPPSAAPLPGLDSSALHPLLCVGPEGQQNLAPGARCGVCGDGTDVLRCTHCAAAFHWRCHFPAGTSRPGTGLRCRSCSGDVTPAPVEGVLAPSPARLAPGPAKDDTASHEPALHRDDLESLLSEHTFDGILQWAIQSMARPAAPFPS

variants of: B1; assay: AIRE transcriptional activation functional score (insulin promoter-GFP; nonsense median 0, synonymous median 1) (normalised score); higher = higher AIRE activity (more reporter activation); conditions: with insulin promoter-GFP reporter in HEK293
Could you please report measured AIRE transcriptional activation functional score for the items listed next?
Give bare numbers.

Record excerpt, results attached:
* P289L | 0.891
* C419R | 0.836
* S185H | -0.313

# batch size: 8; output AIRE transcriptional activation functional score per entry
1. P266T
2. R328K
3. W455V
4. Q225P
5. E423L
6. T68R
7. R538I
8. G155M

Response given:
1.05
0.67
1.17
0.572
1.28
0.304
1.65
2.34

# batch size: 5; output AIRE transcriptional activation functional score per entry
1. S464I
2. S287C
3. H14C
4. A193K
5. L10I

Response given:
[1.17, 1.07, -0.236, 0.858, 0.238]
